- TESTED_ON: Secretory phospholipase A2 (Homo sapiens) (UniProt Q5R387+Q9NZK7+P14555+Q9BZM2+Q9UNK4+P39877+O15496+P04054+Q9NZ20+Q9BZM1+Q9BX93)
- ASSAY_REMARKS: Inhibition of sPLA2 in human plasma using 1-Hexadecanoyl-2-(1-pyrenedecanoyl)-sn-glycero-3-phosphomethanol as substrate preincubated for 10 mins followed by substrate addition measured after 90 mins by fluorescence assay
- Type: cell-free
ASSAY_READOUT: fIC50

- MOLECULE: "NC(=O)c1ccc(Cc2ccccc2)cc1-c1cccc(CCCC(=O)O)c1"
  OBSERVED: "0.03 µM"
- MOLECULE: "CC(Cc1cccc(-c2cc(Cc3ccccc3)ccc2C(N)=O)c1)C(=O)O (stereo not drawn)"
  OBSERVED: "0.001 µM"
- MOLECULE: "NC(=O)c1ccc(Cc2ccccc2)cc1-c1cccc(CCC(=O)O)c1"
  OBSERVED: "0.007 µM"
- MOLECULE: "NC(=O)c1ccc(Cc2ccccc2)cc1-c1cccc(CC(=O)O)c1"
  OBSERVED: "0.04 µM"
- MOLECULE: "NC(=O)c1ccc(Cc2ccccc2)cc1"
  OBSERVED: "0.9 µM"
- MOLECULE: "CCc1c(C(=O)C(N)=O)c2c(OCC(=O)O)cccc2n1Cc1ccccc1 [VARESPLADIB]"
  OBSERVED: "0.008 µM"
- MOLECULE: "CCC(Cc1cccc(-c2cc(Cc3ccccc3)ccc2C(N)=O)c1)C(=O)O (stereo not drawn)"
  OBSERVED: "0.0008 µM"
- MOLECULE: "C[C@H](Cc1cccc(-c2cc(Cc3ccccc3)ccc2C(N)=O)c1)C(=O)O"
  OBSERVED: "0.0001 µM"

###

- TESTED_ON: Voltage-gated inwardly rectifying potassium channel KCNH2 (Homo sapiens)
- Sequence (Q12809 whole entry): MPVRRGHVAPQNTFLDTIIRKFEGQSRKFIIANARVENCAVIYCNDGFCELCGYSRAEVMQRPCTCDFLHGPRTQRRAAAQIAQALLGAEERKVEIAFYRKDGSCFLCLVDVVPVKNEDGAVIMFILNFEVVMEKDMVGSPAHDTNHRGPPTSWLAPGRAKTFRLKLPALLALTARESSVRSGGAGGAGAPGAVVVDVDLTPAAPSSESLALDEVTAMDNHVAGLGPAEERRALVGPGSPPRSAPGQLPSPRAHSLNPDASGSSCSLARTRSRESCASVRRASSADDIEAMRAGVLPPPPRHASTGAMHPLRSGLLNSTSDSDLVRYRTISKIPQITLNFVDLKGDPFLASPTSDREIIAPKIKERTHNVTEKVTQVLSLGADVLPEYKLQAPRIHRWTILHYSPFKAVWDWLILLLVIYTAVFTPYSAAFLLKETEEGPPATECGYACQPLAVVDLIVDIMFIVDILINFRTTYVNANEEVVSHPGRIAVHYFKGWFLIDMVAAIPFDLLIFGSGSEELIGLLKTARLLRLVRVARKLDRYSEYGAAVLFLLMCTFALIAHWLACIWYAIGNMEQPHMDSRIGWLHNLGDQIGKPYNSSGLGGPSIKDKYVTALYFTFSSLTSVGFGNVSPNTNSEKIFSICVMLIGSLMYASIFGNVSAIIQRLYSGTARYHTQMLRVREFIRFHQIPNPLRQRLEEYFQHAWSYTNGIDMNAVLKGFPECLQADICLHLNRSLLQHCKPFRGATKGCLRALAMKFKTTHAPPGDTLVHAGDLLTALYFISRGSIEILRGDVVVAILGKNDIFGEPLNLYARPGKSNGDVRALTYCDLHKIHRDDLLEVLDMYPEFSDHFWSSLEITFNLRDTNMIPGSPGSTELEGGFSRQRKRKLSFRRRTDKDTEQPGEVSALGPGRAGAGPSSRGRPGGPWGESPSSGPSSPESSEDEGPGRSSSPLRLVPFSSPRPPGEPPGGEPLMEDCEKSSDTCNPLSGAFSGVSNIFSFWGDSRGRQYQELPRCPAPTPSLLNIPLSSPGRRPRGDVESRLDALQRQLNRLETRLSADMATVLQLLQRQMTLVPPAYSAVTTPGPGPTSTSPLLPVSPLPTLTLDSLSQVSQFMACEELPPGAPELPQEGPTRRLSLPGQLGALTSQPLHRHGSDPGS
- ASSAY_REMARKS: Inhibition of human ERG expressed in CHO cells by patch clamp assay
pIC50: −log10 of the molar value.

- SMILES_REPRESENTATION: "NC(=O)c1ccc(Cc2ccccc2)cc1-c1cccc(CCC(=O)O)c1"
  pIC50: "< 4.48"

###

- ASSAY_REMARKS: Intrinsic clearance in human hepatocytes at 1 uM assessed per million cells measured up to 60 mins
- Assay type: ADME, cell-based, Hepatocyte
- TEST_CONTEXT: 1 h
// 0 strictly below 10 µL/min/1e6 cells in CLint; 1 otherwise

- MOLECULE: "NC(=O)c1ccc(Cc2ccccc2)cc1-c1cccc(CCC(=O)O)c1"
  CLASS: 0
- MOLECULE: "C[C@H](Cc1cccc(-c2cc(Cc3ccccc3)ccc2C(N)=O)c1)C(=O)O"
  CLASS: 1
- MOLECULE: "CC(Cc1cccc(-c2cc(Cc3ccccc3)ccc2C(N)=O)c1)C(=O)O (stereo not given)"
  CLASS: 0
- MOLECULE: "CCC(Cc1cccc(-c2cc(Cc3ccccc3)ccc2C(N)=O)c1)C(=O)O (stereo not given)"
  CLASS: 1
- MOLECULE: "C[C@@H](Cc1cccc(-c2cc(Cc3ccccc3)ccc2C(N)=O)c1)C(=O)O"
  CLASS: 0

###

- ASSAY_REMARKS: AUC (0 to infinity) in Sprague-Dawley rat at 8 umol/kg, po
- Assay type: ADME
- Parameters: dose 8 umol/kg, time infinity, route oral
- TEST_CONTEXT: in vivo
ASSAY_READOUT: AUC(0-inf) (µM·h)

- SMILES_REPRESENTATION: "C[C@H](Cc1cccc(-c2cc(Cc3ccccc3)ccc2C(N)=O)c1)C(=O)O"
  ASSAY_READOUT: "AUC(0-inf)"
  UNIT_OF_MEASURE: "µM·h"
  OBSERVED: 70

###

- TESTED_ON: Cytochrome P450 2C8 (Homo sapiens)
- Sequence (P10632 whole entry): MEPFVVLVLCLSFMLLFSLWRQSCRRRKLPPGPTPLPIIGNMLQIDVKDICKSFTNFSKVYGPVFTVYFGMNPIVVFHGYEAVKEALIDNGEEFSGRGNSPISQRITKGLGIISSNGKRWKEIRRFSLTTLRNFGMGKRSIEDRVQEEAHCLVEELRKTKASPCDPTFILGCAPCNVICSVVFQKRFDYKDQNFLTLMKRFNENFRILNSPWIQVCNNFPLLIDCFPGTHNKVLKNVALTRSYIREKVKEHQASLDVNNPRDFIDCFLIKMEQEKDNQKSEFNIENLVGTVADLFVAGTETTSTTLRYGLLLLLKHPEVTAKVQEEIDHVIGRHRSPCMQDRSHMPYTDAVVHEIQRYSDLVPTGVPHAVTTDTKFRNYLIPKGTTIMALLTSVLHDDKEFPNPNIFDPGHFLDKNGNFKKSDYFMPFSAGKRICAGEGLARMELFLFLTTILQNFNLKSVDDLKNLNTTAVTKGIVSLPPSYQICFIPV
- ASSAY_REMARKS: Inhibition of human recombinant CYP2C8
ASSAY_READOUT: IC50

- SMILES_REPRESENTATION: "NC(=O)c1ccc(Cc2ccccc2)cc1-c1cccc(CCC(=O)O)c1"
  ASSAY_READOUT: "IC50"
  OBSERVED: "> 20 µM"

###

- ASSAY_REMARKS: Solubility of compound in pH 7.4 DMSO/HBSS after 24 hrs by LC-UV/MS analysis
- Format: physicochemical

- SMILES_REPRESENTATION: "NC(=O)c1ccc(Cc2ccccc2)cc1-c1cccc(CCC(=O)O)c1"
  UNIT_OF_MEASURE: "µM"
  solubility kinetic at 24 h: 98

###

- TESTED_ON: Phospholipase A2, membrane associated (Homo sapiens, UniProt P14555)
- Sequence (P14555 whole entry): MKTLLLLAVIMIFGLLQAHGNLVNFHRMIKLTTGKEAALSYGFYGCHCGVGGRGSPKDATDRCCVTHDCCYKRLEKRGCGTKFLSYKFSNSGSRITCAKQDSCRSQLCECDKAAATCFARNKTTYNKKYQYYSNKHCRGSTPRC
- ASSAY_REMARKS: Inhibition of recombinant sPLA2-2A (unknown origin) using 1-palmitoyl-2-oleoyl-sn-glycero-3-phosphocholine as substrate preincubated for 10 mins followed by substrate addition measured after 60 mins by colorimetric method
pIC50: −log10 of the molar value.

- MOLECULE: "NC(=O)c1ccc(Cc2ccccc2)cc1-c1cccc(C(=O)O)c1"
  pIC50: 6.04
- MOLECULE: "CC(Cc1cccc(-c2cc(Cc3ccccc3)ccc2C(N)=O)c1)C(=O)O (stereo not given)"
  pIC50: 7.96
- MOLECULE: "C[C@H](Cc1cccc(-c2cc(Cc3ccccc3)ccc2C(N)=O)c1)C(=O)O"
  pIC50: 8.00
- MOLECULE: "C[C@@H](Cc1cccc(-c2cc(Cc3ccccc3)ccc2C(N)=O)c1)C(=O)O"
  pIC50: 7.42
- MOLECULE: "NC(=O)c1ccc(Cc2ccccc2)cc1-c1cccc(OCC(=O)O)c1"
  pIC50: 6.72
- MOLECULE: "CCC(Cc1cccc(-c2cc(Cc3ccccc3)ccc2C(N)=O)c1)C(=O)O (stereo not given)"
  pIC50: 7.68
- MOLECULE: "NC(=O)c1ccc(Cc2ccccc2)cc1-c1cccc(CC(=O)O)c1"
  pIC50: 7.15
- MOLECULE: "NC(=O)c1ccc(Cc2ccccc2)cc1-c1cccc(CCCC(=O)O)c1"
  pIC50: 6.96
- MOLECULE: "NC(=O)c1ccc(Cc2ccccc2)cc1-c1cccc(CCC(=O)O)c1"
  pIC50: 7.92
- MOLECULE: "NC(=O)c1ccc(Cc2ccccc2)cc1"
  pIC50: 4.62

###

- TESTED_ON: Sodium channel protein type 5 subunit alpha (Homo sapiens)
- Sequence (Q14524 whole entry): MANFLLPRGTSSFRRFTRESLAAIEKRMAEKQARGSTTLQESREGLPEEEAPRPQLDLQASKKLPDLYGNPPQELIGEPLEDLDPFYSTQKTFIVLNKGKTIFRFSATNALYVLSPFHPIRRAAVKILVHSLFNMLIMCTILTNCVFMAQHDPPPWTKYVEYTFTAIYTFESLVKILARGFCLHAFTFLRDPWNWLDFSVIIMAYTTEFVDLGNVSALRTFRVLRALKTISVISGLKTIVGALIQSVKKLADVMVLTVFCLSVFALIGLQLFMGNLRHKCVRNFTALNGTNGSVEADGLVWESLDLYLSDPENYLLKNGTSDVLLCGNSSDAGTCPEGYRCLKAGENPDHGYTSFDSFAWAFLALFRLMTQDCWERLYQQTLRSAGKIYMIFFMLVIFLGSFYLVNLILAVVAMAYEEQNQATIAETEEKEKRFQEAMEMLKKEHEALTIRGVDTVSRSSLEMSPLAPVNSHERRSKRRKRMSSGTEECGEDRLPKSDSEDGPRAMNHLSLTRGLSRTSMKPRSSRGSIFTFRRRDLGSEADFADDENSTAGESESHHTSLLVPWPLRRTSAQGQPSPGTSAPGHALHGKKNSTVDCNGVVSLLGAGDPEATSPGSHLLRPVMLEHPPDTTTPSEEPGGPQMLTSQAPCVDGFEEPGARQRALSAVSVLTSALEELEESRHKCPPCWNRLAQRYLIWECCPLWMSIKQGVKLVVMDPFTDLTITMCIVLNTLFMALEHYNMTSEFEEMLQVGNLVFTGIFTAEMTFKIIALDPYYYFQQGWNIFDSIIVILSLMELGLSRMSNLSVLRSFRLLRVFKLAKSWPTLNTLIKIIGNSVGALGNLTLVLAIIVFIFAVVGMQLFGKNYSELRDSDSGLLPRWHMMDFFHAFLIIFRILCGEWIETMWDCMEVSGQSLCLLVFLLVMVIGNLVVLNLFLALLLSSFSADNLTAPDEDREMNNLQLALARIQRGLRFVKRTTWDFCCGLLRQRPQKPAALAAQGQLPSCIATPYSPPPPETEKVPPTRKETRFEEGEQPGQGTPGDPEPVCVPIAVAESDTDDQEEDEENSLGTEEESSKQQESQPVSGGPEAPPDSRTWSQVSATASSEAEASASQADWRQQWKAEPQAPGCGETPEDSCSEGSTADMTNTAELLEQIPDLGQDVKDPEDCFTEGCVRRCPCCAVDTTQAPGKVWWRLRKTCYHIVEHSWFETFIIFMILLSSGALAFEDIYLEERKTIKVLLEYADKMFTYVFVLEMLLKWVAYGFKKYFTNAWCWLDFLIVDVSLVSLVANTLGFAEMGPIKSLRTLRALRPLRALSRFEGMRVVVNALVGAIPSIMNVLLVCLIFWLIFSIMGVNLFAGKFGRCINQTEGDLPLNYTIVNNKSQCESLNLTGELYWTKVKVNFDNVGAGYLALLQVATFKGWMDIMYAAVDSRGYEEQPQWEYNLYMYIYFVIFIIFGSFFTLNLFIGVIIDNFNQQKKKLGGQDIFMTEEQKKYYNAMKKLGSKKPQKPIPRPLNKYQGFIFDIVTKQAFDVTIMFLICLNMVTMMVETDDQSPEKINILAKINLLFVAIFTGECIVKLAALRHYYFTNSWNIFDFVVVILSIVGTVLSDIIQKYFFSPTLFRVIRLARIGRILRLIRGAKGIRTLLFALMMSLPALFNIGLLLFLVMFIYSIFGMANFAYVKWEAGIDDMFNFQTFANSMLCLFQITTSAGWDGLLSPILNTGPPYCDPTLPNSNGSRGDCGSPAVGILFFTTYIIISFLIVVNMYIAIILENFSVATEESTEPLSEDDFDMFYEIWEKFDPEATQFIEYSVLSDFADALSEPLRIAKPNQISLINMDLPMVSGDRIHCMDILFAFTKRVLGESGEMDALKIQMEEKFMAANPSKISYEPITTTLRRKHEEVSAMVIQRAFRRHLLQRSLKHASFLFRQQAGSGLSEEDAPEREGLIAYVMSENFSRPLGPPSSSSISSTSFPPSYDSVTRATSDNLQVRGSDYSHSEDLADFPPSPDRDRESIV
- ASSAY_REMARKS: Inhibition of human Nav1.5 expressed in CHO cells by patch clamp assay
- Assay type: cell-based
pIC50: −log10 of the molar value.
ASSAY_READOUT: pIC50

- SMILES_REPRESENTATION: "NC(=O)c1ccc(Cc2ccccc2)cc1-c1cccc(CCC(=O)O)c1"
  ASSAY_READOUT: "pIC50"
  OBSERVED: "< 4.48"

###

- TESTED_ON: Group 10 secretory phospholipase A2 (Homo sapiens, UniProt O15496)
- Sequence (O15496 whole entry): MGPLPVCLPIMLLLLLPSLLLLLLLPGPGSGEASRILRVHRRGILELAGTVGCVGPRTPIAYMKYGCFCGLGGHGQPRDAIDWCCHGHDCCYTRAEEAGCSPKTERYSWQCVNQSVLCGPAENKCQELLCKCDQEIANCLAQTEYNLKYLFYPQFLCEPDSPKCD
- ASSAY_REMARKS: Inhibition of recombinant sPLA2-10 (unknown origin) using 1-palmitoyl-2-oleoyl-sn-glycero-3-phosphocholine as substrate preincubated for 10 mins followed by substrate addition measured after 60 mins by colorimetric method
pIC50: −log10 of the molar value.

- COMPOUND: "NC(=O)c1ccc(Cc2ccccc2)cc1-c1cccc(OCC(=O)O)c1"
  pIC50: 5.43
- COMPOUND: "CC(Cc1cccc(-c2cc(Cc3ccccc3)ccc2C(N)=O)c1)C(=O)O (stereo not drawn)"
  pIC50: 6.12
- COMPOUND: "NC(=O)c1ccc(Cc2ccccc2)cc1-c1cccc(CC(=O)O)c1"
  pIC50: 5.96

###

- TESTED_ON: Voltage-dependent T-type calcium channel subunit alpha-1H (Homo sapiens)
- ASSAY_REMARKS: Inhibition of human Cav3.2 expressed in CHO cells by patch clamp assay
pIC50: −log10 of the molar value.
ASSAY_READOUT: pIC50

- SMILES_REPRESENTATION: "NC(=O)c1ccc(Cc2ccccc2)cc1-c1cccc(CCC(=O)O)c1"
  ASSAY_READOUT: "pIC50"
  OBSERVED: "< 4.48"
